# System: A431 (epidermoid carcinoma)
# procedure_details: MTT antiproliferative assay, A431
# Format: cell-based
# condition_set: Homo sapiens, A-431, A431, 10 μM, 48 or 72 h, read-out: inhibition of cell growth, A431
metric_name: inhibition at 10 µM

1. CO[C@@]1(C)C2=CC=C3[C@@](C)(CC[C@@]4(C)[C@@H]5C[C@](C)(C#N)CC[C@]5(C)CC[C@]34C)C2=CC(=O)[C@@H]1O [Compound A62] = ≥ 80%
2. COC(=O)[C@]1(C)CC[C@]2(C)CC[C@]3(C)C4=CC=C5C(=CC(=O)[C@H](O)[C@@]5(C)OC)[C@]4(C)CC[C@@]3(C)[C@@H]2C1 [Compound A20] = ≥ 80%
3. CO[C@]1(C)C(=O)C(=O)C=C2C1=CC=C1[C@@]2(C)CC[C@@]2(C)[C@@H]3C[C@](C)(C(=O)NCCO)CC[C@]3(C)CC[C@]12C [Compound A44] = ≥ 80%
4. CO[C@@]1(C)C2=CC=C3[C@@](C)(CC[C@@]4(C)[C@@H]5C[C@](C)(CO)CC[C@]5(C)CC[C@]34C)C2=CC(=O)[C@@H]1O [Compound A18] = ≥ 80%
5. CO[C@@]1(C)C2=CC=C3[C@@](C)(CC[C@@]4(C)[C@@H]5C[C@](C)(C(N)=O)CC[C@]5(C)CC[C@]34C)C2=CC(=O)/C1=C\C#N [Compound A59] = ≥ 80%
6. COC(=O)[C@]1(C)CC[C@]2(C)CC[C@]3(C)C4=CC=C5C(=CC(=O)/C(=C/C#N)C5(C)O)[C@]4(C)CC[C@@]3(C)[C@@H]2C1 (stereo partly drawn) [Compound A34] = 50 to 80%
